Assay: qHTS RealTime-Glo MT Cell Viability Assay in HepG2 cells - 24 hour (AID 1224867); further: nearly all actives have a fitted effect of over 50% in size
Conditions: RealTime-Glo luminescence; series mostly up to 76.8 µM
Records with an inconclusive call do not appear. The source made the active and inactive calls. The call rests on the fitted dose curve; in most records, active means well fitted cell-killing curve with a large enough effect in the repeat runs; inconclusive means weak or mixed curves; inactive means flat fitted curve, though single readings scatter.
Outcomes: active, inactive

>>> class("OC[C@H]1O[C@@H]2O[C@H]3[C@H](O)[C@@H](O)[C@@H](O[C@H]4[C@H](O)[C@@H](O)[C@@H](O[C@H]5[C@H](O)[C@@H](O)[C@@H](O[C@H]6[C@H](O)[C@@H](O)[C@@H](O[C@H]7[C@H](O)[C@@H](O)[C@@H](O[C@H]8[C@H](O)[C@@H](O)[C@@H](O[C@H]1[C@H](O)[C@H]2O)O[C@@H]8CO)O[C@@H]7CO)O[C@@H]6CO)O[C@@H]5CO)O[C@@H]4CO)O[C@@H]3CO")
"inactive"
>>> class("c1ccc2sc(SSN3CCOCC3)nc2c1")
"active"
>>> class("COC(=O)c1ccccc1")
"inactive"
>>> class("Cc1ccc(C)c(O)c1C")
"inactive"
>>> class("O=C(/C=C/c1ccccc1)OCc1ccccc1")
"inactive"
>>> class("O=C(c1ccccc1)c1ccccc1O")
"inactive"
>>> class("CCCCC(CC)COP(=O)(OCC(CC)CCCC)OCC(CC)CCCC (stereo not given)")
"inactive"
>>> class("CN(C)CCN(Cc1cccs1)c1ccccn1")
"inactive"
>>> class("C[Si](C)(C)O[Si](C)(C)C")
"inactive"
>>> class("Nc1ccc(S(=O)(=O)Nc2cnc3ccccc3n2)cc1")
"inactive"

====

Biological target: Progesterone receptor (Homo sapiens)
Assay: qHTS assay to identify small molecule antagonists of the progesterone receptor (PR) signaling pathway (AID 1346795); further: potency means the concentration at half of the fitted maximal effect
Conditions: PR-UAS-bla HEK293T, beta-lactamase FRET ratio, 16 h; series mostly up to 92.4 µM
Results filed as inconclusive are left out. Activity calls are given as the source filed them. Calls follow the shape of the dose curve; as a rule, active = well fitted inhibition curve with a large enough effect in the signal ratio in the repeat runs (not every such curve was filed as active); inconclusive = weak or mixed curves; inactive = flat fitted curve, though single readings scatter; the % refers to the signal ratio.
ENDPOINT LABEL: Potency

>>> reported_value("CN(C)CCC=C1c2ccccc2CCc2ccccc21")
"54.5 µM (active)"
>>> reported_value("c1ccc2c(c1)Oc1ccccc1S2")
"inactive"
>>> reported_value("C[Si](C)(C)O[Si](C)(C)C")
"inactive"
>>> reported_value("O=C(OCc1ccccc1)c1ccccc1O")
"inactive"
>>> reported_value("C=CC(C)(CCC=C(C)C)OC(C)=O (stereo unspecified)")
"inactive"
>>> reported_value("O=C(Nc1ccc([N+](=O)[O-])cc1Cl)c1cc(Cl)ccc1O")
"30.6 µM (active)"

====

Assay: qHTS assay for identifying genotoxic compounds that show differential cytotoxicity against isogenic chicken DT40 cell lines with known DNA damage response pathways - wild type cell line (AID 743012); further: nearly all actives have a fitted effect of over 60% in size
Settings: DT40 wild type chicken cells viability, CellTiter-Glo, 40 h; series mostly up to 68.4 µM
Inconclusive results are not listed. The source made the active and inactive calls. Calls follow the shape of the dose curve; as a rule, active = well fitted cell-killing curve with a large enough effect in the repeat runs; inconclusive = weak or mixed curves, or effect the other way; inactive = no such curve, though single readings can be large or run the other way.
Outcomes: Y for active, N for inactive

>>> class("c1ccc2sc(SSN3CCOCC3)nc2c1")
"Y"
>>> class("CCCCCCCCCC(=O)OC")
"N"
>>> class("CC(=O)C1(C)CC2=C(CCCC2(C)C)CC1C (stereo unspecified)")
"N"
>>> class("CCCCOCCOCCO")
"N"
>>> class("COc1ccc(OC)c(C(O)CNC(=O)CN)c1 (stereo unspecified)")
"N"
>>> class("Cc1cccc([N+](=O)[O-])c1C")
"N"
>>> class("CC(C)CC(C)(O)C#CC(C)(O)CC(C)C (stereo unspecified)")
"N"
>>> class("COc1c(Cl)c(Cl)c(Cl)c(Cl)c1Cl")
"N"
>>> class("CCC(C)c1ccccc1O (stereo unspecified)")
"N"
>>> class("Cc1ncc[nH]1")
"N"
>>> class("COC(=O)c1ccccc1")
"N"
>>> class("O=P(O)(O)O")
"N"
>>> class("Nc1ccc(Nc2ccccc2)cc1")
"Y"
>>> class("O=C(c1ccccc1)c1ccc(O)cc1O")
"N"
>>> class("O=S(=O)(O)c1ccc(O)cc1")
"N"
>>> class("S=C(NC1CCCCC1)NC1CCCCC1")
"N"
>>> class("O=CCCCC=O")
"Y"
>>> class("CCCCC(CC)COCC1CO1 (stereo unspecified)")
"N"
>>> class("O=C(COc1ccc(Cl)cc1)N1CCN(Cc2ccc3c(c2)OCO3)CC1")
"Y"
>>> class("CCCc1c(OCCCCc2nn[nH]n2)ccc(C(C)=O)c1O")
"Y"
>>> class("CC(C)=CCCC(C)CCO (stereo unspecified)")
"Y"
>>> class("C=CC(C)(CCC=C(C)C)OC(C)=O (stereo unspecified)")
"N"
>>> class("Cc1cc2nc3c(=O)[nH]c(=O)nc-3n(C[C@H](O)[C@H](O)[C@H](O)CO)c2cc1C")
"N"
>>> class("c1ccc2cc(Nc3ccc(Nc4ccc5ccccc5c4)cc3)ccc2c1")
"N"
>>> class("C=C(C)C(=O)OCCOC(=O)C(=C)C")
"N"
>>> class("c1ccc(Nc2ccccc2)cc1")
"Y"
>>> class("CC(C(=O)O)c1cccc(C(=O)c2ccccc2)c1 (stereo unspecified)")
"N"
>>> class("CCCCC/C=C/C=C/C=O")
"Y"
>>> class("Nc1ccccc1N")
"Y"
>>> class("CC1=CCC(C(C)(C)O)CC1 (stereo unspecified)")
"N"
>>> class("COc1ccc(C(=O)CC(=O)c2ccc(C(C)(C)C)cc2)cc1")
"N"
